Tested on: 994946-033-R-J1-PDC complex spheroid viability
Assay Protocol: Anticancer human tumor 994946-033-R-J1-PDC patient-derived melanoma cell line growth inhibition [POLQ]
Condition: second compound 3.16 µM; first compound 0.0316 µM; stronger effect = lower value

{"Compound": "CCc1cc2c(N3CCc4c(cc(Cn5ccnc5)cc4-c4cn(C)nc4C(F)(F)F)C3=O)cc(C)nc2c(OC)n1 + Cc1cccc(N(C)C(=O)C2C(O)CCN2c2nc(C)cc(C(F)(F)F)c2C#N)c1", "Target Desc": "994946-033-R-J1-PDC complex spheroid viability", "viability, T/C": "76.5%"}
{"Compound": "COc1cccc(OCCCN)c1-c1cc(Nc2cnc(C#N)cn2)n[nH]1 + Cc1cccc(N(C)C(=O)C2C(O)CCN2c2nc(C)cc(C(F)(F)F)c2C#N)c1", "Target Desc": "994946-033-R-J1-PDC complex spheroid viability", "viability, T/C": "46.8%"}
{"Compound": "CC[C@@]1(O)C(=O)OCc2c1cc1n(c2=O)Cc2cc3c(CN(C)C)c(O)ccc3nc2-1 + COC1C(OC(N)=O)C(O)C(Oc2ccc3c(O)c(NC(=O)c4ccc(O)c(CC=C(C)C)c4)c(=O)oc3c2C)OC1(C)C", "Target Desc": "994946-033-R-J1-PDC complex spheroid viability", "viability, T/C": "28%"}
{"Compound": "Nc1ccn(C2OC(CO)C(O)C2(F)F)c(=O)n1 (stereo not drawn) + COC1C(OC(N)=O)C(O)C(Oc2ccc3c(O)c(NC(=O)c4ccc(O)c(CC=C(C)C)c4)c(=O)oc3c2C)OC1(C)C", "Target Desc": "994946-033-R-J1-PDC complex spheroid viability", "viability, T/C": "54.6%"}
{"Compound": "CC(C)n1c(=O)n(C)c2cnc3cc(F)c(-c4ccc(OCCCN5CCCCC5)nc4)cc3c21 + COC1C(OC(N)=O)C(O)C(Oc2ccc3c(O)c(NC(=O)c4ccc(O)c(CC=C(C)C)c4)c(=O)oc3c2C)OC1(C)C", "Target Desc": "994946-033-R-J1-PDC complex spheroid viability", "viability, T/C": "81.8%"}
{"Compound": "CC1COCCN1c1cc(C2(S(C)(=N)=O)CC2)nc(-c2ccnc3[nH]ccc23)n1 (stereo not drawn) + Cc1cccc(N(C)C(=O)C2C(O)CCN2c2nc(C)cc(C(F)(F)F)c2C#N)c1", "Target Desc": "994946-033-R-J1-PDC complex spheroid viability", "viability, T/C": "94.5%"}
{"Compound": "CC[C@@]1(O)C(=O)OCc2c1cc1n(c2=O)Cc2cc3c(CN(C)C)c(O)ccc3nc2-1 + Nc1ccc(C#CCN(C(=O)Cc2ncc(C(F)(F)F)cc2C(F)(F)F)c2ccc(F)cc2)nn1", "Target Desc": "994946-033-R-J1-PDC complex spheroid viability", "viability, T/C": "31.4%"}
{"Compound": "O=c1[nH]cc(F)c(=O)[nH]1 + Cc1cccc(N(C)C(=O)C2C(O)CCN2c2nc(C)cc(C(F)(F)F)c2C#N)c1", "Target Desc": "994946-033-R-J1-PDC complex spheroid viability", "viability, T/C": "99.3%"}

====

System: 994946-033-R-J1-PDC complex spheroid viability
Assay Protocol: Anticancer human tumor 994946-033-R-J1-PDC cell line growth inhibition [POLQ];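 also: spheroids exposed to drugs for 7 days; 100% = DMSO vehicle treated spheroids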
Condition: second compound 10 µM; first compound 0.316 µM; stronger effect = lower value

{"Compound": "Nc1ccn(C2OC(CO)C(O)C2(F)F)c(=O)n1 (configuration not stated) + COC1C(OC(N)=O)C(O)C(Oc2ccc3c(O)c(NC(=O)c4ccc(O)c(CC=C(C)C)c4)c(=O)oc3c2C)OC1(C)C", "viability, T/C": "6.97%"}
{"Compound": "COc1cccc(OCCCN)c1-c1cc(Nc2cnc(C#N)cn2)n[nH]1 + COC1C(OC(N)=O)C(O)C(Oc2ccc3c(O)c(NC(=O)c4ccc(O)c(CC=C(C)C)c4)c(=O)oc3c2C)OC1(C)C", "viability, T/C": "20.2%"}
{"Compound": "C=CC(=O)N1CCN(c2nc(=O)n(-c3c(C)ccnc3C(C)C)c3nc(-c4c(O)cccc4F)c(F)cc23)C(C)C1 (configuration not stated) + Cc1cccc(N(C)C(=O)C2C(O)CCN2c2nc(C)cc(C(F)(F)F)c2C#N)c1", "viability, T/C": "105%"}
{"Compound": "C=CCn1c(=O)c2cnc(Nc3ccc(N4CCN(C)CC4)cc3)nc2n1-c1cccc(C(C)(C)O)n1 + Nc1ccc(C#CCN(C(=O)Cc2ncc(C(F)(F)F)cc2C(F)(F)F)c2ccc(F)cc2)nn1", "viability, T/C": "67.4%"}
{"Compound": "CNCc1ccc(-c2[nH]c3cc(F)cc4c3c2CCNC4=O)cc1 + COC1C(OC(N)=O)C(O)C(Oc2ccc3c(O)c(NC(=O)c4ccc(O)c(CC=C(C)C)c4)c(=O)oc3c2C)OC1(C)C", "viability, T/C": "80.3%"}
{"Compound": "CC1COCCN1c1cc(C2(S(C)(=N)=O)CC2)nc(-c2ccnc3[nH]ccc23)n1 (configuration not stated) + Nc1ccc(C#CCN(C(=O)Cc2ncc(C(F)(F)F)cc2C(F)(F)F)c2ccc(F)cc2)nn1", "viability, T/C": "108%"}
{"Compound": "CC1COCCN1c1cc(-c2ccnn2C)c2ccnc(-c3ccn[nH]3)c2n1 (configuration not stated) + Nc1ccc(C#CCN(C(=O)Cc2ncc(C(F)(F)F)cc2C(F)(F)F)c2ccc(F)cc2)nn1", "viability, T/C": "21.1%"}
{"Compound": "O=c1[nH]cc(F)c(=O)[nH]1 + COC1C(OC(N)=O)C(O)C(Oc2ccc3c(O)c(NC(=O)c4ccc(O)c(CC=C(C)C)c4)c(=O)oc3c2C)OC1(C)C", "viability, T/C": "90.5%"}
{"Compound": "C=CCn1c(=O)c2cnc(Nc3ccc(N4CCN(C)CC4)cc3)nc2n1-c1cccc(C(C)(C)O)n1 + COC1C(OC(N)=O)C(O)C(Oc2ccc3c(O)c(NC(=O)c4ccc(O)c(CC=C(C)C)c4)c(=O)oc3c2C)OC1(C)C", "viability, T/C": "93.8%"}
{"Compound": "CC1COCCN1c1cc(C2(O)CC3CCC(C2)O3)c2cnn(-c3ccn[nH]3)c2n1 (configuration not stated) + Nc1ccc(C#CCN(C(=O)Cc2ncc(C(F)(F)F)cc2C(F)(F)F)c2ccc(F)cc2)nn1", "viability, T/C": "24.6%"}
{"Compound": "O=C(c1cc(Cc2n[nH]c(=O)c3ccccc23)ccc1F)N1CCN(C(=O)C2CC2)CC1 + Cc1cccc(N(C)C(=O)C2C(O)CCN2c2nc(C)cc(C(F)(F)F)c2C#N)c1", "viability, T/C": "83.3%"}
{"Compound": "COc1cccc(OCCCN)c1-c1cc(Nc2cnc(C#N)cn2)n[nH]1 + Nc1ccc(C#CCN(C(=O)Cc2ncc(C(F)(F)F)cc2C(F)(F)F)c2ccc(F)cc2)nn1", "viability, T/C": "30.3%"}

These entries and their values trace back to PubChem BioAssay AID1963827.
